Origin of the recorded values: PubChem BioAssay (NCI)

System: SK-OV-3 ovarian
Assay: NCI-60 one-dose screen, 48 h (100 = growth as untreated, 0 = no growth, -100 = all killed)
Details: 10 µM unless noted
About 83,000 compounds went through this panel and 20% of them were active in at least one assay; those are over-represented in the sample as a whole.
Measured property: growth (%)
One number for each entry, in %.

Provide growth for all items below, preserving their order.
1. Nc1ccc(N)c2c1Oc1ccccc1O2
2. CCCCNCCc1ccccn1
3. CN(Cc1cccnc1)N=O
4. C[CH2][Pb]([CH2]C)([CH2]C)[O]C(=O)c1ccc(N)cc1
5. CCOc1ccc(C(O)CN(C)Cc2ccccc2)cc1Cl (centres undefined)
6. O=[N+]([O-])c1ccc(/C=C/C=C/c2ccc(S(=O)(=O)F)cc2)c(Cl)c1
7. C[C@]12CC[C@@H]3C4=C(CC[C@H]3[C@@H]1CC[C@@H]2O)CC(=O)CC4
8. CC(C)(O)/C=C/C(=O)[C@](C)(O)[C@H]1[C@H](O)C[C@@]2(C)[C@@H]3CC=C4[C@@H](C=C(O)C(=O)C4(C)C)[C@]3(C)C(=O)C[C@]12C

1. 94.6
2. 119
3. 99.4
4. 76.4
5. 109
6. 98
7. 114
8. 5.63

Tell me measured growth for CC[C@@]1(C2O[C@@H](C3O[C@@](O)(CC)[C@H](C)C[C@@H]3C)C[C@@H]2C)CC[C@H]([C@]2(C)CCC3(C[C@H](O)[C@@H](C)[C@@H]([C@H](C)[C@@H](OC)[C@H](C)C(=O)O)O3)O2)O1 (some centres undefined) please.
23

###

Tested on: MDA-MB-435 melanoma
Assay: NCI-60 one-dose screen, 48 h (100 = growth as untreated, 0 = no growth, -100 = all killed)
Settings: 10 µM unless noted
About 83,000 compounds went through this panel and 20% of them were active in at least one assay; those are over-represented in the sample as a whole.
Measured property: growth (%)
Answers are plain numbers, in %.

Study these solved cases before continuing.
Molecule: Cn1cnnc1[S-].[Au+].c1ccc([PH+](c2ccccc2)c2ccccc2)cc1
Units text: %
growth: 11.1
--
Molecule: CC12CCC3C(CC=C4CC(O)CCC43C)C1C/C(=C\N1CCOCC1)C2=O (stereo unspecified)
Units text: %
growth: 107
--
Molecule: CC(=O)N(C)C1=Nc2ccc(Cl)cc2C(c2ccccc2)=[N+]([O-])C1
Units text: %
growth: 111
--
Molecule: CC(=O)O[C@H]1CCC2C3CCC4=C/C(=N/O)CCC4(C)C3CCC21C (stereo partly specified)
Units text: %
growth: 20.3
--
Molecule: O1[As]2O[As]3O[As]1O[As](O2)O3
Units text: %
growth: 14.1
--
Molecule: FC(F)=C(F)c1ccccc1
Units text: %
growth: 104
--
Molecule: CCCCCCCCCCOc1ccc(C(=O)Oc2ccc(CSP3(=O)OCC4OC(n5ccc(=O)[nH]c5=O)C(F)C4OP(=O)(O)OCC4OC(n5cnc6c(N)ncnc65)C(F)C4O3)cc2)cc1 (stereo unspecified)
Units text: %
growth: 105
--
Molecule: Nc1ncnc2c1c(C(=O)NO)cn2C1OC(CO)C(O)C1O (stereo unspecified)
Units text: %
growth: -72

Provide growth for all items below, preserving their order.
1. CC(C)N=C(NC(C)C)N1CC1
2. NCCc1cc(O)c(O)cc1O

103
108

Tell me measured growth for COC1=CC(=O)OC(CCc2ccc3c(c2)OCO3)C1 (stereo unspecified) please.
112

###

Test system: 786-0 renal
Assay: NCI-60 one-dose screen, 48 h
Conditions: 10 µM unless noted
About 83,000 compounds went through this panel and 20% of them were active in at least one assay; those are over-represented in the sample as a whole. Active and inactive are the calls of the source. Rule for the calls: active = growth percent below 10; inactive = the rest.
Could you please pick one outcome from this set? active, inactive

Worked examples, 3 molecules total:
Molecule: C/C1=C/C(=O)O[C@@H]2C[C@@H](CC[C@H](C)/C=C\C=C\CC1)O[C@@](OCCc1ccccc1)([C@@H]1CSC(=O)N1)C2
Assay target: 786-0 renal
Class name: active

Molecule: CC12CCC(=O)C=C1CCC1C2CCC2(C)C(C(=O)COC(=O)Cc3ccc(N(CCCl)CCCl)cc3)CCC12 (stereo not drawn)
Assay target: 786-0 renal
Class name: inactive

Molecule: CN=C(NN)NN
Assay target: 786-0 renal
Class name: inactive

Query: recorded result category for `C[CH2][Pb]([CH2]C)([CH2]C)[O]C(=O)COc1ccccc1` in this test
active

Query: recorded result category for `C[C@@H]1CC[C@@H]2[C@@H]1[C@H](OC(=O)/C=C/C1CCCCC1)[C@]1(C3CCCCC3)C[C@@H](OC(=O)CO)[C@@]2(C)O1` in this test
active

Query: recorded result category for `[Cl][Hg][n]1cnc2c(Cl)c(Cl)c(Cl)cc21` in this test
inactive

Query: recorded result category for CN1C(=O)NC(=O)C(N=Nc2ccc(Cl)cc2)C1=O (stereo not drawn) in this test
inactive

Query: recorded result category for `CCCCOC(=O)c1ccccc1C(=O)O.CCCCOC(=O)c1ccccc1C(=O)O.[Cu+2]` in this test
inactive

###

Tested on: HL-60(TB) leukemia
Assay: NCI-60 one-dose screen, 48 h
Settings: 10 µM unless noted
Protocol: Growth inhibition of the HL-60(TB) human tumor cell line is measured as a screen for anti-cancer activity. Cells are grown in 96 well plates and exposed to the test compound for 48 hours. Compounds are tested at a single concentration, which is 10^-5 M for most compounds. The reported endpoint is percent growth (GI% or GIPRCNT), where numbers from 0 - 100% represent growth inhibition, and numbers from -100% - 0 represent cell death. For example, a value of 40 represents 60% growth inhibition. […]
The panel holds about 83,000 compounds, 20% with a hit somewhere; the sample as a whole holds those more often. The source made the active and inactive calls. The calls were made as follows: active = growth percent below 10; inactive = the rest.
Could you please pick one outcome from this set? TRUE (active), FALSE (inactive)

Worked examples, 4 compounds total:
Compound: O=C(O)c1cn(C2CC2)c2cc(N3CCN(C(=O)Nc4nc(-c5ccc(Cl)cc5)cs4)CC3)c(F)cc2c1=O
Class name: TRUE
//
Compound: CCN(CC)CCCC(C)Nc1cnc(C(=O)Nc2cccc3ccc(OC)nc23)cn1 (stereo unspecified)
Class name: FALSE
//
Compound: CCOC(=O)c1c(C)nc2c(c1N)C(=O)C(=O)N2CCc1ccc(OC)c(OC)c1
Class name: FALSE
//
Compound: CC1Cc2ccccc2O1 (stereo unspecified)
Class name: FALSE

Query: recorded result category for `CCSc1cnnc2ccccc12` in this test
FALSE

Query: recorded result category for `Cc1cc(C)c(C=O)c(C)c1` in this test
FALSE

###

System: HS 578T breast
Assay: NCI-60 one-dose screen, 48 h
Conditions: 10 µM unless noted
About 83,000 compounds went through this panel and 20% of them were active in at least one assay; those are over-represented in the sample as a whole. Calls of active or inactive are those of the source. The calls were made as follows: active = growth percent below 10; inactive = the rest.
Could you please pick one outcome from this set? YES = active, NO = inactive

Molecule: COc1ccc(NP2(=O)OCC(C)(N)CO2)cc1 (centres undefined)
Class name: NO

Here is the next item to consider.
Query: recorded result category for `CCCCn1cc(C(=O)/C(C#N)=C/c2cc3ccccc3nc2Cl)c2cc(OC)ccc21` in this test
NO

###

System: MDA-MB-231 breast
Experiment: NCI-60 one-dose screen, 48 h
Conditions: 10 µM unless noted
About 83,000 compounds went through this panel and 20% of them were active in at least one assay; those are over-represented in the sample as a whole. Activity calls are given as the source filed them. How the source made its calls: active means growth percent below 10; inactive means the rest.
Could you please pick one outcome from this set? TRUE (active), FALSE (inactive)

Compound: [O]=[Sn]([CH]1CCCCC1)[CH]1CCCCC1
Assay target: MDA-MB-231 breast
Class name: TRUE

Query: recorded result category for `c1ccc(-c2ccc3ccccc3[o+]2)cc1` in this test
FALSE

Query: recorded result category for CC(C)(C)NCC(O)c1ccccc1Cl (configuration not stated) in this test
FALSE

###

Test system: SK-MEL-2 melanoma
Test: NCI-60 one-dose screen, 48 h
Settings: 10 µM unless noted
About 83,000 compounds went through this panel and 20% of them were active in at least one assay; those are over-represented in the sample as a whole. Active and inactive are the calls of the source. How the source made its calls: active means growth percent below 10; inactive means the rest.
Could you please pick one outcome from this set? active, inactive

Worked examples, 4 molecules total:
Molecule: CN=C(NN)NN
Class name: inactive
--
Molecule: COc1cc(CNCCc2ccc(Cl)cc2)cc(OC)c1O
Class name: inactive
--
Molecule: CC(=O)O[C@H]1CC[C@H]2[C@@H]3CC[C@H]4CC=C(C)C[C@]4(C)[C@H]3CC[C@]12C
Class name: inactive
--
Molecule: [Br][Pb]([c]1ccccc1)([c]1ccccc1)[c]1ccccc1
Class name: active

Query: recorded result category for ClCCN(CCCl)c1nc(Cl)c(C2CC(c3ccc(Cl)cc3)=NN2c2cc(Cl)cc(Cl)c2)s1 (centres undefined) in this test
inactive

Query: recorded result category for CC(=O)N1N=C(c2ccccc2)CC1c1sc(N(CCCl)CCCl)nc1Cl (centres undefined) in this test
inactive

Query: recorded result category for `CC1(C)N=C(N)N=C(N)N1c1ccc(CCCCc2ccc(S(=O)(=O)F)cc2)cc1` in this test
inactive

Query: recorded result category for `CC[C@@H](C)/C=C(C)/C=C/C(=O)c1c(O)c(-c2ccc(O)cc2)cn(O)c1=O` in this test
inactive

Query: recorded result category for `O=C(CCF)c1ccc(O)cc1` in this test
inactive
